metric: melting point

Illustrative cases are given below, each with its answer.
O=C(C=CCN1CCN(CC(=O)OCc2ccccc2)CC1)Nc1cc2c(Nc3ccc(F)c(Cl)c3)ncnc2cc1OCC1CC1 | 174 °C
CCOC(=O)C1CN(S(C)(=O)=O)CCN1CC=CC(=O)Nc1cc2c(Nc3ccc(F)c(Cl)c3)ncnc2cc1OCC1CC1 (stereo not drawn) | 170 to 173 °C
CCOC(=O)CN(CC=CC(=O)Nc1cc2c(Nc3ccc(F)c(Cl)c3)ncnc2cc1OCC1CC1)CCOC(C)=O | 90 to 92 °C
C=CC(=O)Nc1cc2c(Nc3cccc(Br)c3)ncnc2cc1OCCCN1CCN(CC(=O)OCC)CC1 | 80 to 85 °C
CCOC1CN(CC=CC(=O)Nc2cc3c(Nc4cccc(Br)c4)ncnc3cc2OC)CC(OCC)O1 (stereo not drawn) | 133 to 138 °C

In: State, in one line, measured melting point of CCOC(=O)CN1CCN(C(C)(C)C=CC(=O)Nc2cc3c(Nc4ccc(F)c(Cl)c4)ncnc3cc2OCC2CC2)CC1
Out: 165 to 167 °C

In: Indicate the recorded melting point value for this compound: C=CC(=O)Nc1cc2c(Nc3cccc(Br)c3)ncnc2cc1OCCCN1CCN(CC(=O)O)CC1
Out: 140 °C (dec.)

In: Answer with reported melting point of CC1(C)CN(CC=CC(=O)Nc2cc3c(Nc4ccc(F)c(Cl)c4)ncnc3cc2OCC2CC2)CC(=O)O1
Out: 140 to 142 °C

In: Given CCOC(=O)CN(C)CCCNC(=O)C=CC(=O)Nc1ccc2ncnc(Nc3cccc(Br)c3)c2c1 , respond with its melting point.
Out: 199 °C

###

Each record here notes measured melting point.

Below are worked cases with known answers.
CCOC(=O)CCN1CCN(CC=CC(=O)Nc2cc3c(Nc4ccc(F)c(Cl)c4)ncnc3cc2OCC2CC2)CC1 | 183 to 185 °C
CCOC(=O)CN(C)CC=CC(=O)Nc1ccc2ncnc(Nc3cccc(Br)c3)c2c1 | 182 to 183 °C
CCOC(=O)CN(C)CC=CC(=O)Nc1cc2c(Nc3cccc(C)c3)ncnc2cc1OC | 110 to 114 °C

In: Provide one value: measured melting point of CCOC(=O)C1CN(C(C)=O)CCN1CC=CC(=O)Nc1cc2c(Nc3ccc(F)c(Cl)c3)ncnc2cc1OCC1CC1 (stereo not shown)
Out: 152 to 156 °C

###

- tested_system: human EGF-R (Homo sapiens)
- Construct: retroviral vector LXSN, packaging line GP+E86
- Sequence (P00533 25-1210): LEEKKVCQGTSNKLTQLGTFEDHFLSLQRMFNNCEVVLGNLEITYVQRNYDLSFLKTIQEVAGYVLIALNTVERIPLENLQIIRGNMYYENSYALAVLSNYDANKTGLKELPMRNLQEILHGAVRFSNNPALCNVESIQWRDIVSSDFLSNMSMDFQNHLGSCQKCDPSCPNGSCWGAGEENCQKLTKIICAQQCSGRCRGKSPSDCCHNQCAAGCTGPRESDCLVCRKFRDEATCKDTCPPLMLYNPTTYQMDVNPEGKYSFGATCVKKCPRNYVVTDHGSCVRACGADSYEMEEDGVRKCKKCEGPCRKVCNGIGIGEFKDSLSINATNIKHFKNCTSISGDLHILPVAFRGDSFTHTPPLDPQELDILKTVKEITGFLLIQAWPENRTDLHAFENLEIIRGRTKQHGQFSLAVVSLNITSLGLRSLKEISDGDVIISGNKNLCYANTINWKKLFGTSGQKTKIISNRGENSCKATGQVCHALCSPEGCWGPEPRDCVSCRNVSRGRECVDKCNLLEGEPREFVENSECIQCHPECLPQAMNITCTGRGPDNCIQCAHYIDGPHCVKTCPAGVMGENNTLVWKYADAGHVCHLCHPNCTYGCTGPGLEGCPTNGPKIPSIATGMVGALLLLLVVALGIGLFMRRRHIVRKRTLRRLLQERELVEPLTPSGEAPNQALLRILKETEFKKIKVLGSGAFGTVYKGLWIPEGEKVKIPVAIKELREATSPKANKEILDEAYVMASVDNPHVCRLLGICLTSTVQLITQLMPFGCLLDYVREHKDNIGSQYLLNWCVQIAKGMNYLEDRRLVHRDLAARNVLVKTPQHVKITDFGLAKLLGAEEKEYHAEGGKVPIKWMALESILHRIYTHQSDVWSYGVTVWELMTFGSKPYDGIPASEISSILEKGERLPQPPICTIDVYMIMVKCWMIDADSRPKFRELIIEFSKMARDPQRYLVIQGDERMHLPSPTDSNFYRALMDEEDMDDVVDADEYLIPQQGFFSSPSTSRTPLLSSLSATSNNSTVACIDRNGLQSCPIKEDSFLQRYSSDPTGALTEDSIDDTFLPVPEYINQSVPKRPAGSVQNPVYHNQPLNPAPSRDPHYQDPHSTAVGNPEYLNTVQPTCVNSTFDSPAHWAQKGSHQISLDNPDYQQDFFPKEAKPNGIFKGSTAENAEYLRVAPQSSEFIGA
- experiment_notes: Inhibition of EGF-dependent proliferation of F/L-HERc cells (Cell Titer 96 AQueous assay)
- protocol_conditions: F/L-HERc cells (murine IL-3-dependent line expressing human EGF-R), stimulated with EGF 20 ng/ml, 48 hours at 37° C.
Threshold check on IC50: strictly below 7 nM is yes (1); on or above 7 nM is no (0).

Worked cases, answers included:
CCOC(=O)CCN(CC=CC(=O)Nc1cc2c(Nc3ccc(F)c(Cl)c3)ncnc2cc1OCC1CC1)CC(=O)OCC | no (0)
CCOP(=O)(CN(C)CC=CC(=O)Nc1cc2c(Nc3cccc(Br)c3)ncnc2cc1OC)OCC | yes (1)
CCOC(=O)CN(C)CC=CC(=O)Nc1ccc2ncc(C#N)c(Nc3cccc(Br)c3)c2c1 | no (0)

In: Please indicate whether the reported IC50 of C=CC(=O)Nc1cc2c(Nc3cccc(Br)c3)ncnc2cc1OC1CCN(CC(=O)OCC)CC1 is strictly below 7 nM.
Out: no (0)

In: Is IC50 strictly under 7 nM for the entry C=CC(=O)Nc1cc2c(Nc3cccc(Br)c3)ncnc2cc1OCCCN1CCN(CC(=O)OCC)CC1 ?
Out: yes (1)

In: # check: IC50 < 7 nM for CCOC(=O)CN(CC=CC(=O)Nc1cc2c(Nc3ccc(F)c(Cl)c3)ncnc2cc1OCC1CC1)CCOC(C)=O
Out: no (0)

In: Is IC50 strictly under 7 nM for the entry C=CC(=O)Nc1cc2c(Nc3cccc(Br)c3)ncnc2cc1OCCCN1CCN(CCCC(=O)OCC)CC1 ?
Out: no (0)
